Protein target, amino acids: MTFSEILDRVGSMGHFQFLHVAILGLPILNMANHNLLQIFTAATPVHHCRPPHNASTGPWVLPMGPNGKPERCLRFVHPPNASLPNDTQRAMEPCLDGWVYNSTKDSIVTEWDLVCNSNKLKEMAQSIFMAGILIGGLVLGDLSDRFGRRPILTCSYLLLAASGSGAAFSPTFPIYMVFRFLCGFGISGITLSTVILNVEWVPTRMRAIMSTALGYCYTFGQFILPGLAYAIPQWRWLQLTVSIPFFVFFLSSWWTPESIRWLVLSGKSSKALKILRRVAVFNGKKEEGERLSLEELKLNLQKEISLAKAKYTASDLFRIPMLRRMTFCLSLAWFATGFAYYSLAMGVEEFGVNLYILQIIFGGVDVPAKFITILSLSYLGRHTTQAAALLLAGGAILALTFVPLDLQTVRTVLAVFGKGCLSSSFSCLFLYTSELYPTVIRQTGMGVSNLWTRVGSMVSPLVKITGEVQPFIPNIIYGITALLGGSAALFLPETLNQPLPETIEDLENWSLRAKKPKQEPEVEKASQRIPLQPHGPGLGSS
Reported Property: Km (µM)
Numbers only, in µM.

Would you mind telling me what Km value was observed for O=C1OC2(c3ccc(O)cc3Oc3cc(O)ccc32)c2ccccc21 [fluorescein] ?
3.7
